Test system: SW-620 colon
Test: NCI-60 one-dose screen, 48 h
Details: 10 µM unless noted
Compounds without any hit were thinned out: in the full panel of roughly 83,000, 20% have a hit. Calls of active or inactive are those of the source. The calls were made as follows: active = growth percent below 10; inactive = the rest.
Returns: one label drawn from active, inactive

- COMPOUND: "C#Cc1ccc2c(c1)C(c1ccccc1F)=NCC(=O)N2C"
  GROUP: "inactive"
- COMPOUND: "C=CC1=C[C@@H]2[C@@H]3O[C@]4(CC[C@H](O4)[C@@H](C)C[C@@H](O)C3=O)C[C@H](O)C3=NCC[C@@]32CC1"
  GROUP: "active"
- COMPOUND: "O=C(c1ccccc1O)c1[nH]c(Cl)c(Cl)c1-n1c(C(=O)c2ccccc2O)cc(Cl)c1Cl"
  GROUP: "active"
- COMPOUND: "C[C@]12CC[C@H]3[C@@H](CC4SC(N)=NC45C/C(=N/NC(N)=O)CC[C@]35C)[C@@H]1CCC2=O (stereo not given in full)"
  GROUP: "active"
- COMPOUND: "O=C(N/N=C/c1ccc(N(CCCl)CCCl)cc1)c1cccc2ccccc12"
  GROUP: "inactive"
- COMPOUND: "CN1CCC(c2c[nH]c3ccccc23)C1 (stereo not given)"
  GROUP: "inactive"
- COMPOUND: "CCCc1cc(O)c2c3c(c(=O)oc2c1)CN(C)CC3"
  GROUP: "inactive"
- COMPOUND: "CC(=O)OCc1cc[c]([Hg][Cl])o1"
  GROUP: "inactive"
- COMPOUND: "COc1ccc2c(c1)c(-c1nc(-c3c[nH]c4ncccc34)cs1)cn2CCN1CCOCC1"
  GROUP: "inactive"

Consider now this further compound.
Please indicate how the test categorized O=P1(NCCCl)OCCCN1CCCl (stereo not given) .
inactive

The values you see were collected from PubChem BioAssay (NCI).
